src = PubChem BioAssay AID1996

Conditions: buffer; pH 7.4; 200.0 µM
# solubility kinetic per record follows

// below: answered compounds
NC(=O)c1nc(-c2ccccc2)c(-c2ccccc2)[nH]c1=O :: > 43.7 µg/mL
CC(=O)Nc1ccc(NC(=O)COC(=O)c2ccc([N+](=O)[O-])o2)cc1 :: > 52.1 µg/mL
COC(=O)c1sccc1-c1ccc(/C=N/OC(=O)c2cccs2)o1 :: < 0.8 µg/mL
COc1ccc(C(=O)Nc2ccccc2C(=O)N2CCOCC2)cc1 :: > 51.1 µg/mL
O=C(Nc1cc2c3c(c1)CC(=O)N3CCC2)C1CC1 :: > 38.4 µg/mL

Continue with the compound presented below.
For the compound `COC(=O)Cn1c2ccc(OC)cc2c2nc(C)sc21` , what solubility kinetic is on record?
> 43.6 µg/mL

###

Conditions: buffer; pH 7.4; 200.0 µM
Each entry below lists one item and its recorded solubility kinetic value.

CCN(c1cccc(C)c1)S(=O)(=O)c1csc(C(N)=O)c1 :: > 48.7 µg/mL

Okay, now this molecule:
So what does the record say about solubility kinetic for `CC(=O)NCCc1ccc(C(=O)COC(=O)c2cccn2C)cc1` ?
> 49.3 µg/mL

###

Conditions: buffer; pH 7.4; 200.0 µM
Examples of compounds with documented solubility kinetic follow.

COc1ccc(C(=O)CC(=O)C(=O)Nc2ccc(C)c(C)c2)cc1 :: 12.4 µg/mL
Cn1c2c(c(=O)c3ccccc31)CCCC2 :: > 32 µg/mL
Cn1cc([N+](=O)[O-])c(C(=O)NCc2ccco2)n1 :: > 37.5 µg/mL

Given the compound `CN(Cc1ccccc1)C(=O)COc1cccnc1[N+](=O)[O-]` , what is its reported solubility kinetic?
> 45.2 µg/mL

What about `Cc1noc(C(=O)N(C)c2ccccc2)c1Cl` ?
33.8 µg/mL

Entry to check: CCOP(=O)(OCC)C(NC(=O)c1ccc(OC)cc1)c1ccccc1 (stereo not drawn)
53.8 µg/mL

One more compound: CCCOc1ccc(NC(=O)CCC(=O)NC(C)c2ccccc2)cc1 (stereo not drawn)
0.5 µg/mL

Moving on to `CC1(C)CC(=O)C=C(Nc2cccc(F)c2)C1`
> 35 µg/mL

Check Cc1nccn1CC(O)COc1ccc([N+](=O)[O-])cc1 (stereo not drawn) too.
> 41.6 µg/mL

###

Details: buffer; pH 7.4; 200.0 µM
attribute measured: solubility kinetic

// known answers, use as guide
O=C1CCCN1Cc1ccccc1 :: > 26.3 µg/mL
Cn1c(NC2CCCCC2)c(N=O)c(=O)n(C)c1=O :: > 39.9 µg/mL
O=S(=O)(c1ccc(Cl)cc1)N1CCC2(CC1)OCCO2 :: > 47.7 µg/mL
COc1ccc(Cn2cnc([N+](=O)[O-])c2)cc1[N+](=O)[O-] :: > 41.7 µg/mL
Cc1ccc(NC(=O)COC(=O)C2CC(=O)N(Cc3ccccc3)C2)cc1F (configuration not stated) :: 46.8 µg/mL
Cc1ccc(CN(C)c2ccc(S(=O)(=O)N3CCCC3)cn2)cc1 :: 12.5 µg/mL

Now consider the entry below.
May I ask what solubility kinetic has been recorded for CC(NS(=O)(=O)c1ccc([N+](=O)[O-])cc1)C(=O)NN (configuration not stated) ?
> 43.2 µg/mL

###

Settings: buffer; pH 7.4; 200.0 µM
attribute measured: solubility kinetic (µg/mL)
Your answer is read as µg/mL, so omit the unit and give the number.

Which measured solubility kinetic value corresponds to `O=C1NC(=O)N(Cc2ccc(F)cc2)C(=O)/C1=C\c1ccoc1` ?
46.6

What about this compound? `CNc1nc(-c2ccc(OC)cc2)c(-c2ccc(OC)cc2)s1`
1.8

# repeat for `Cc1ccc(NC(=O)Cc2c(F)cccc2Cl)cc1S(=O)(=O)N1CCOCC1`
2

Repeat for the following compound: `Cc1ccc(Nc2nc(=O)c3cccnc3s2)c(Br)c1`
2.4

Same again, this time with `Fc1cc(F)c2nc(N3CCCC3)sc2c1`
9.4

Same lookup for `Cc1ccc(O)c(NC(=O)c2cc([N+](=O)[O-])ccc2Cl)c1` , please.
8.5

Quick one: `Nc1nc(Nc2ccc(Cl)cc2)nc(NCCO)c1[N+](=O)[O-]`
3.1

Next entry: `COc1ccccc1NC(=O)COC(=O)/C=C/c1ccc(OC)c(OC)c1`
4.1

Cc1cc([N+](=O)[O-])c2c(c1C)C1C=CCC1C(c1ccccn1)N2 (stereo unspecified) , same question.
9.3

Lookup `C=CCSc1ncccc1C(=O)NCCc1ccccc1`
29.3

###

Conditions: buffer; pH 7.4; 200.0 µM
Label yes (1) when solubility kinetic is at or above 40 µg/mL; otherwise label no (0).

Please tell me: is the molecule `CCN(CC(=O)NCc1cccs1)C(=O)c1cc(Br)ccc1O` at or over 40 µg/mL in terms of solubility kinetic?
yes (1)

Try `Cc1cccc2nc(-c3ccco3)c(Nc3ccccc3)n12` next.
no (0)

###

Conditions: buffer; pH 7.4; 200.0 µM
attribute measured: solubility kinetic

Return reported solubility kinetic; argument: CCOc1cc(C2NC(=O)NC2=O)ccc1O (centres undefined)
> 35.4 µg/mL

###

Overview of reported solubility kinetic across a group of compounds:
Settings: buffer; pH 7.4; 200.0 µM

The cases that follow already have their solubility kinetic on record.
COc1ccccc1/C=C1\C(=O)NC(=S)N(c2ccccc2)C1=O :: > 50.8 µg/mL
Cc1cc(C(C)(C)C)ccc1NC(=O)CC(C)(C)CC(=O)O :: > 45.8 µg/mL
Cc1ccc(F)cc1NC(=O)CSc1ncccn1 :: > 41.6 µg/mL
Cc1csc(SC(C)C(=O)NCc2ccc3c(c2)OCO3)n1 (stereo not drawn) :: 49 µg/mL
COc1ccc(C2C(C)C3(O)CC(C#N)(C(=O)N3)C2(C#N)C#N)cc1 (stereo not drawn) :: > 50.5 µg/mL

Data request, read-out solubility kinetic, for `Cc1cc(NC(=O)CSc2nc(C)c(C)n2CC(C)C)no1`
> 48.4 µg/mL

Next up: `CC(C)(C)C(=O)Nc1sc(-c2ccccc2)cc1C(=O)O`
> 45.5 µg/mL

And the next one, `O=C1N=C(N2CCN(c3ccccc3)CC2)S/C1=C/c1ccco1` ?
17.4 µg/mL

Likewise for `CN(CC(=O)Nc1ccc(F)cc1)CC(=O)N1CCc2ccccc21` ?
> 51.2 µg/mL

Try this compound too: `O=C(c1ccco1)N1CCN(c2ccc([N+](=O)[O-])cc2Cl)CC1`
3.8 µg/mL

Next up: COC(=O)C1(C(C[N+](=O)[O-])c2ccco2)C(=O)NCC1c1ccccc1 (stereo not drawn)
11.1 µg/mL

And for CC(C)CN1C2CCCC1CC(NC(=S)NCc1ccco1)C2 (stereo not drawn) ?
> 50.3 µg/mL

Can you check `O=C(c1ccc(Cl)cc1)N1CCn2c1nc1ccccc12` next?
1.1 µg/mL

###

Settings: buffer; pH 7.4; 200.0 µM
Overview of reported solubility kinetic across a group of compounds:
State the answer as a number, implicitly in µg/mL.

Example compounds with recorded solubility kinetic:
CC1=CC(C)(C)NC(=S)N1c1cc(C)cc(C)c1 :: 8.7
Cc1ccc(NC(=S)N2CCc3[nH]c4ccccc4c3C2)cc1 :: 0.8
Cc1ccc(C)c(OC(=O)C2CSC3(C)CCC(=O)N23)c1C (configuration not stated) :: 44.2
CCC(=O)N/C(=N/c1nc(C)cc(C)n1)Nc1ccccc1 :: 13
CCC1(Cc2ccccc2)NC(=O)c2ccccc2O1 (configuration not stated) :: 36.5
Oc1ccccc1-c1cncn1Cc1ccccc1 :: 11.4
CC(OC(=O)/C=C/c1ccccc1)C(=O)NC1CCCCC1C (configuration not stated) :: 8.4
Cc1cc(=O)oc2cc(NC(=O)c3ccccc3Cl)ccc12 :: 8

Consider the compound shown here: `Cc1ccc(CNc2ccc(N3CCOCC3)c(Cl)c2)cc1` What is its recorded solubility kinetic?
1.7

Try this compound too: `COc1ccccc1C(=O)NCC(=O)Nc1ccc2c(c1)OCO2`
10.5

Same read-out for O=C(CC(c1ccc(F)cc1)c1ccco1)Nc1nccs1 (configuration not stated) ?
14.7

Next compound up: `CSc1nc(=S)n(-c2ccc([N+](=O)[O-])cc2)c(C)c1C(C)=O`
48.2

Lookup `CCn1cc(C(=O)NCc2ccccc2)c2ccccc21`
8

What about `O=C(Cc1ccc(F)cc1)Nc1ccc(Cl)cn1` ?
8.1

###

Listed next: entries and their corresponding solubility kinetic.
Settings: buffer; pH 7.4; 200.0 µM

# count of solved cases: 3
N=C1C=CC=C2C1=NC1(CCCCC1)N2O :: > 32.6 µg/mL
CC(NS(=O)(=O)c1ccc(Cl)c(Cl)c1)C(=O)Nc1cccnc1 (configuration not stated) :: > 56.1 µg/mL
CC(C)(C)NC(=O)/C=C/c1cccs1 :: > 31.4 µg/mL

Give the measured solubility kinetic of `O=S(=O)(c1cccc2nsnc12)N1CCNCC1` .
> 42.7 µg/mL

What about `OCCN(CC#CCn1c2ccccc2c2ccccc21)CCO` ?
> 48.4 µg/mL

Input `CN(C(=S)Nc1ccc(SC(F)F)cc1)c1ccc(O)cc1`
> 51.1 µg/mL

Another compound: `CCN(CCO)c1ncnc2onc(-c3ccc(F)cc3)c12`
> 45.3 µg/mL
